The origin of these recorded values is ChEMBL document CHEMBL1201862.

system: SNB-19; experiment: NCI tumour cell line growth inhibition, 48 h
Activity calls are given as the source filed them. Cut-off read from the data, not from the text of the source: active = GI50 up to about 1.1 µM and inactive = higher.
# reported GI50; entries follow

Sample answers from the record:
| compound | GI50 |
| --- | --- |
| Cc1ccc(NC(=O)CC2SC(=N)NC2=O)cc1C (stereo not given) | > 100 µM (inactive) |
| O=C(CN(c1ccccc1)c1ccccc1)N1c2ccccc2C2C=CC=CC21 (stereo not given) | 17.5 µM (inactive) |
| COC1(OC)CCCCC2c3cccc(OC(C)=O)c3C21OC(C)=O (stereo not given) | > 100 µM (inactive) |
| O=C1c2ccccc2C(=O)N1CCCCCCNOCCCN1C(=O)c2ccccc2C1=O | 78.3 µM (inactive) |
| O=C(Nc1sccc1S(=O)(=O)c1ccc(Cl)cc1)c1ccc(Cl)cc1Cl | > 100 µM (inactive) |
| Cc1cc(S(=O)(=O)Nc2nc(N)nc(N3N=CCC3C)n2)c(SCC(=O)O)cc1Cl (stereo not given) | > 10 µM (inactive) |

Any idea what its GI50 is? The compound is CCOC(=O)[C@@H]1C2C(=C[C@H]3[C@H]1C(=O)N1CCCC[C@H]31)CCCN2C(=O)OCc1ccccc1 (stereo not given in full)
> 100 µM (inactive)

Any idea what its GI50 is? The compound is O=C1c2ccccc2C(=O)c2[nH]c(Cc3ccccc3F)nc21
38.5 µM (inactive)

Any idea what its GI50 is? The compound is O=C(CC(=O)C1CCOC1=O)C(=O)Nc1cccc(Cl)c1 (stereo not given)
> 100 µM (inactive)

Any idea what its GI50 is? The compound is O=C1C=C(NCCc2ccc(O)cc2)C(=O)C=C1NCCc1ccc(O)cc1
> 100 µM (inactive)
